# experiment description: AUClast in Sprague-Dawley rat at 3 mg/kg, IG measured upto 24 hrs by LC-MS/MS analysis
# Assay type: ADME, organism-based
# Set-up: time < 24 hrs, dose 3 mg/kg, route ig
# assay conditions: in vivo, po
value type: AUC(0-t) at 24 h (µM·h)
Numbers only, in µM·h.

[in] Which AUC(0-t) at 24 h reading was recorded for the compound CC(C)COc1ccc(CNC(=O)N(Cc2ccc(F)cc2)C2CCN(C)CC2)cc1.O=C(O)C(O)C(O)C(=O)O ?
[out] 0.0786

====

I'd appreciate it if you could supply pIC50 values for the items below.
# tested target: 5-hydroxytryptamine receptor 2A (Homo sapiens)
# experiment description: Inverse agonist activity at 5-HT2A receptor (unknown origin) expressed in mouse NIH3T3 cells using o-nitrophenyl-D-galacto pyranoside incubated for 120 hrs
# Assay type: functional, cell-based
Answers are plain numbers, as −log10 of the molar value.

1) CC(C)Cc1ccc(CNC(=O)N(Cc2ccc(F)cn2)C2CCN(C)CC2)cc1 : 8.08

// below: pIC50 requested for another molecule
[in] Which pIC50 reading was recorded for the molecule CC(C)COc1ccc(CNC(=O)N(Cc2ccc(F)cc2)C2CC(N(C)C)C2)cc1 (stereo not given) ?
[out] 6.80

====

# tested target: 5-hydroxytryptamine receptor 2A (Homo sapiens, UniProt P28223)
# Sequence (P28223 whole entry): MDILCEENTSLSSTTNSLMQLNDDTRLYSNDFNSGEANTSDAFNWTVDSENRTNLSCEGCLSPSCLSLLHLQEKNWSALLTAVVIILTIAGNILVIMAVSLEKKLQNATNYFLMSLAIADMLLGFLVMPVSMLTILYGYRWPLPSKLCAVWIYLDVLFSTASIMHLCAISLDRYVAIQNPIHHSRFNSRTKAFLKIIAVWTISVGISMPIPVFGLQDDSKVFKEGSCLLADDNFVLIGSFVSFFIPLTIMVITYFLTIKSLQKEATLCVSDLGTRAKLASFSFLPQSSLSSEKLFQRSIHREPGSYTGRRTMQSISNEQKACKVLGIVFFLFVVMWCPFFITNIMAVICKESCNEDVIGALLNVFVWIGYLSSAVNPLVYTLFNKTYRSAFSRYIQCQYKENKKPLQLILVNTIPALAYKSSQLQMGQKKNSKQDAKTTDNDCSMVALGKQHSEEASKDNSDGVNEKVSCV
value type: pKi
Answers are plain numbers, as −log10 of the molar value.

[in] Which pKi reading was recorded for the molecule CN1CCC(N(Cc2ccc(F)cn2)C(=O)NCc2ccc(OCC(F)(F)F)cc2)CC1 ?
[out] 9.70

====

# experiment description: Plasma protein binding in rat at 10 uM
# Type: ADME, cell-free
# assay conditions: read-out: PPB (converted)
value type: fraction unbound at 10 µM
Answers are plain numbers.

1) CC(C)COc1ccc(CNC(=O)N(Cc2ccc(F)cc2)C2CCN(C)CC2)cc1 [PIMAVANSERIN] : 0.037

// below: fraction unbound at 10 µM requested for another molecule
[in] Which fraction unbound at 10 µM reading was recorded for the molecule CN1CCC(N(Cc2ccc(F)cn2)C(=O)NCc2ccc(OCC(F)(F)F)cc2)CC1 ?
[out] 0.418

====

# experiment description: AUClast in Sprague-Dawley rat at 4 mg/kg, IG administered as single dose measured upto 24 hrs by LC-MS/MS analysis
# Assay type: ADME, organism-based
# Set-up: dose 4 mg/kg, time < 24 hrs, route ig
# assay conditions: in vivo, po
value type: AUC(0-t) at 24 h
Please answer using a numeric value trailed by its unit.

[in] Which AUC(0-t) at 24 h reading was recorded for the compound CN1CCC(N(Cc2ccc(F)cn2)C(=O)NCc2ccc(OCC(F)(F)F)cc2)CC1.O=C(O)C(O)C(O)C(=O)O ?
[out] 1.22 µM·h

====

# experiment description: Tmax in Sprague-Dawley rat at 4 mg/kg, IG administered as single dose measured upto 24 hrs by LC-MS/MS analysis
# Format: ADME, organism-based
# assay conditions: in vivo, po
value type: Tmax (min)
One number for each entry, in min.

[in] Which Tmax reading was recorded for the compound CN1CCC(N(Cc2ccc(F)cn2)C(=O)NCc2ccc(OCC(F)(F)F)cc2)CC1.O=C(O)C(O)C(O)C(=O)O ?
[out] 48.6

====

# experiment description: Cmax in Sprague-Dawley rat at 3 mg/kg, IG measured upto 24 hrs by LC-MS/MS analysis
# Assay type: ADME, organism-based
# Design: dose 3 mg/kg, time < 24 hrs, route ig
# assay conditions: in vivo, po
value type: Cmax

[in] Which Cmax reading was recorded for the compound CC(C)COc1ccc(CNC(=O)N(Cc2ccc(F)cc2)C2CCN(C)CC2)cc1.O=C(O)C(O)C(O)C(=O)O ?
[out] 43.3 nM

====

# tested target: 5-hydroxytryptamine receptor 2A (Homo sapiens)
# experiment description: Antagonist activity at 5-HT2A receptor (unknown origin) expressed in CHO-K1 cells assessed as reduction in intracellular Ca2+ mobilization incubated for 15 mins by FLIPR assay
# Type: functional, cell-based
value type: pIC50
Answers are plain numbers, as −log10 of the molar value.

1. CC(C)CCc1ccc(CNC(=O)N(Cc2ccc(F)cn2)C2CCN(C)CC2)cc1 : 7.17

I need pIC50 for every entry listed below, if you could help.
1. CN1CCC(N(Cc2ccc(F)cn2)C(=O)NCc2ccc(OCC(F)(F)F)c(Cl)c2)CC1
2. CC(C)COc1ccc(CNC(=O)N(Cc2ccc(F)cc2)C2CCN(CC(=O)N(C)C)CC2)cc1
3. CC(C)COc1ccc(CNC(=O)N(Cc2ncc(F)cc2F)C2CCN(C)CC2)cc1
4. CN1CCC(N(Cc2ccc(F)cn2)C(=O)NCc2ccc(OCC(F)(F)F)c(Br)c2)CC1
5. CC(C)COc1ccc(CNC(=O)N(Cc2ccc(F)cc2)C2CCC(N(C)C)C2)cc1 (stereo not given)

[out]
[6.90, 6.60, 7.36, 7.92, 6.96]

====

# experiment description: Metabolic stability in Sprague-Dawley rat liver microsomes assessed as half life at 100 uM preincubated for 10 mins followed by NADPH addition by LC/MS analysis
# Assay type: ADME, Microsome
value type: half-life at 100 µM

Below: 3 compounds and their reported half-life at 100 µM.
1. CN1CCC(N(Cc2ccc(F)cn2)C(=O)NCc2ccc3c(c2)CC(C)(C)O3)CC1 : 1.06 h
2. CN1CCC(N(Cc2ccc(F)cn2)C(=O)NCc2ccc(OCC(F)(F)F)cc2)CC1 : 1.72 h
3. CC(C)COc1ccc(CNC(=O)N(Cc2ccc(F)cc2)C2CCN(C)CC2)cc1 : 1.78 h

// below: half-life at 100 µM requested for another compound
[in] Which half-life at 100 µM reading was recorded for the compound CN1CCC(N(Cc2ccc(F)cn2)C(=O)NCc2ccc(OCCCF)cc2)CC1 ?
[out] > 3.1 h

====

# experiment description: Metabolic stability in human liver microsomes assessed as intrinsic clearance at 100 uM preincubated for 10 mins followed by NADPH addition by LC/MS analysis
# Format: ADME, Microsome
# assay conditions: read-out: CLH
I'd appreciate it if you could supply CLint scaled at 100 µM values for the items below.
Numbers only, in mL/min/kg.

1) CC(C)COc1ccc(CNC(=O)N(Cc2ccc(F)cc2)C2CCN(C)CC2)cc1 : 11

// below: CLint scaled at 100 µM requested for another compound
[in] Which CLint scaled at 100 µM reading was recorded for the compound CN1CCC(N(Cc2ccc(F)cn2)C(=O)NCc2ccc3c(c2)CC(C)(C)O3)CC1 ?
[out] 11.9

====

# tested target: 5-hydroxytryptamine receptor 2A (Homo sapiens, UniProt P28223)
# experiment description: Inverse agonist activity at 5-HT2A receptor (unknown origin) expressed in mouse NIH3T3 cells using o-nitrophenyl-D-galacto pyranoside incubated for 120 hrs
# Assay type: functional, cell-based
Doc: threshold 90 nM (exclusive). Items with IC50 beneath it return class 1; others return class 0.

As a guide, the following entries are already answered.
1. CC(C)COc1ccc(CNC(=O)N(Cc2ccc(F)cc2)C2CCC(N(C)C)C2)cc1 (stereo not given) : class 0
2. CC(C)COc1ccc(CNC(=O)N(Cc2ccc(F)cc2)C2CCN(CC(=O)N(C)C)CC2)cc1 : class 1
3. CC(C)COc1ccc(CNC(=O)N(Cc2cccc3sccc23)C2CCN(C)CC2)cc1 : class 0
4. CC(C)COc1ccc(CNC(=O)N(Cc2ccc(F)nn2)C2CCN(C)CC2)cc1 : class 0
5. CN1CCC(N(Cc2ccc(F)cn2)C(=O)NCc2ccc(OCC(F)(F)F)c(C(F)(F)F)c2)CC1 : class 1

[in] is_below(IC50, 90 nM) for CN1CCC(N(Cc2ccc(F)cn2)C(=O)NCc2ccc3c(c2)CCC(C)(C)O3)CC1 ?
[out] class 0

[in] is_below(IC50, 90 nM) for CN1CCC(N(Cc2ccc(F)cn2)C(=O)NCc2ccc(OCCCF)cc2)CC1 ?
[out] class 1

[in] is_below(IC50, 90 nM) for CC(C)c1cc2cc(CNC(=O)N(Cc3ccc(F)cn3)C3CCN(C)CC3)ccc2o1 ?
[out] class 1

[in] is_below(IC50, 90 nM) for CC(C)COc1ccc(CNC(=O)N(Cc2ccc(F)cc2)C2CCCC(N(C)C)C2)cc1 (stereo not given) ?
[out] class 0

[in] is_below(IC50, 90 nM) for CC(C)COc1ccc(CNC(=O)N(Cc2cn[nH]c2)C2CCN(C)CC2)cc1 ?
[out] class 0

[in] is_below(IC50, 90 nM) for CC(C)COc1ccc(CNC(=O)N(Cc2cccc3[nH]cnc23)C2CCN(C)CC2)cc1 ?
[out] class 0

[in] is_below(IC50, 90 nM) for CN1CCC(N(Cc2ccc(F)cn2)C(=O)NCc2ccc(OCC(F)(F)F)cc2)CC1 ?
[out] class 1

[in] is_below(IC50, 90 nM) for CN1CCC(N(Cc2ccc(F)cn2)C(=O)NCc2ccc(OCC(F)(F)F)c(Cl)c2)CC1 ?
[out] class 0

[in] is_below(IC50, 90 nM) for CN1CCC(N(Cc2ccc(F)cn2)C(=O)NCc2ccc(CCC(F)(F)F)cc2)CC1 ?
[out] class 0

[in] is_below(IC50, 90 nM) for CN1CCC(N(Cc2ccc(F)cn2)C(=O)NCc2ccc(OCC(F)(F)F)c(Br)c2)CC1 ?
[out] class 1

Reference source: ChEMBL document CHEMBL5131502
